# RUN_DESCRIPTION: chemical genetic growth profiling, strain panel (AID 1159580);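 also: tested at 20 µM; growth read once vehicle control cultures reached saturation at 30 °C; 1 = growth at the plate median or of vehicle wells; lower values mean less growth of the strain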
# CONDITION_INFO: S. cerevisiae deletion strains, growth OD, locus YNL071W, strain lat1, active compounds read low
About 2,000 (36%) of roughly 5,500 compounds were called active. Inconclusive results (about 18%) are left out. This is one part of the list.
VALUE_KIND: normalized growth
Answer using only a numeral; do not append any unit.

Below, 4 molecules whose answers are already recorded.
| MOLECULE | DATA_VALUE |
| --- | --- |
| NCCSSCCN | 1 |
| CC(C)OC(=O)C(C)(C)Oc1ccc(C(=O)c2ccc(Cl)cc2)cc1 | 0.941 |
| CO[C@H]1[C@H](O)[C@H](O[C@H]2CC[C@]3(C)C4CC[C@]5(C)C(C6=CC(=O)OC6)CC[C@]5(O)C4CC[C@@H]3C2)O[C@@H](C)[C@@H]1O (stereo not given in full) | 0.996 |
| COc1ccc2c(c1)OCc1c-2oc2cc(OC)ccc12 | 0.502 |

Note: attention shifts to another entry.
Quick check: normalized growth of CC(=O)OCC(=O)[C@H]1CCC2C3CCC4=CC(=O)CC[C@]4(C)C3CC[C@@]21C (stereo not given in full) ? 0.923

# credit: PubChem BioAssay AID1159580
